TEST NAME: clinical
CONDITIONS USED: human, in vivo, 50 mg
Counter-ions that a name gives are not always drawn.
OBSERVED PROPERTY: bioavailability

Record summary for COc1cccc([C@]2(O)CCCC[C@H]2CN(C)C)c1 (racemic) [Tramadol, hydrochloride] : reported bioavailability = 91.2%

----------
TEST NAME: clinical
CONDITIONS USED: human, in vivo, iv, 100 mg
Where a name gives a salt, the structure may show the parent alone.
OBSERVED PROPERTY: AUC (ng·h/mL)
Please state the figure in ng·h/mL; there is no need to write the unit.

Record summary for COc1cccc([C@]2(O)CCCC[C@H]2CN(C)C)c1 (racemic) [Tramadol, hydrochloride] : reported AUC = 4730

Data credit: patent US10406122B2
